Kd values, listed per item
- TARGET OR TEST SYSTEM: T1, human CD47 protein, His Tag (ACRObiosystems, Cat. No. CD7-H5227) (human, UniProt Q08722 19-139)
- T1 construct: Bought protein; also called hCD47-His Tag protein; not shown: His tag
- T1 sequence (Q08722 19-139 limits assumed): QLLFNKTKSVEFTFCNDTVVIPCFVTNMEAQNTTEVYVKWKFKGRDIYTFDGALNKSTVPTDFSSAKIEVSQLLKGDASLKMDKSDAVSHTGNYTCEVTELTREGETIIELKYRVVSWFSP
- ASSAY OVERVIEW: Biacore SPR, antibody captured on CM5 chip, CD47-His protein, 25 C
Provide the reading as a plain figure in nM.

Known Kd results, listed for orientation:
| BINDER | RECORDED NUMBER |
| --- | --- |
| hz3F10-5.2 (antibody, human IgG4 S228P, kappa, V domains shown, Humanized 3F10, full-length heavy and light chains, made in CHO cells) VH: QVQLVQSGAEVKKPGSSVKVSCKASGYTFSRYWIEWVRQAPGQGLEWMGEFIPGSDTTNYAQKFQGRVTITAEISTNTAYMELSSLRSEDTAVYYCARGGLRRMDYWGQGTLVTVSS VL: DIQMTQSPSSLSASVGDRVTITCRASSSVSSTYLHWYQQKPGKAPKLWIYTTSTLASGVPSRFSGSGSGTSYTLTISSLQPEDFATYYCQQFSDSTWTFGQGTKLEIKR | 0.896 |
| hz3F10-2.1 (antibody, human IgG4 S228P, kappa, V domains shown, Humanized 3F10, full-length heavy and light chains, made in CHO cells) VH: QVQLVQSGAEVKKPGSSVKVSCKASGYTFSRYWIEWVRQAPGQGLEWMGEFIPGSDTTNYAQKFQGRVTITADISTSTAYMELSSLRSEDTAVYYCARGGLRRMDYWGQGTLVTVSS VL: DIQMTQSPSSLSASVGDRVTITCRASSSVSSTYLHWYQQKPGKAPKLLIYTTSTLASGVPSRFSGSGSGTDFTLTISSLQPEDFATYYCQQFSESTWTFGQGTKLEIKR | 0.836 |
| Xi2H8 (antibody, human IgG4 S228P, kappa, V domains shown, Chimeric: mouse VH on human IgG4 (S228P, EU) constant region, mouse VL on human kappa constant region; made in CHO cells; also called chimeric version of 2H8) VH: QVQLKESGPGLVAPSQSLSITCTVSGFSLTNYGVHWVRQPPGKGLEWLGIIWAGGSTNYNSALMSRLSISKDNSKSQVFLKMNSLQTDDTAMYYCARDDYASMDYWGQGTSVTVSS VL: DAFMTQTPLSLPVSLGDQASISCRSSQSLVHSNGNTYLHWYLQKPGQSPKLLIYKVSNRFSGVPDRFSGSGSGTDFTLKISRVEAEDLGVYFCSQSTHVPYTLGGGTKLEIKR | 0.35 |
| hz3F10-5.1 (antibody, human IgG4 S228P, kappa, V domains shown, Humanized 3F10, full-length heavy and light chains, made in CHO cells) VH: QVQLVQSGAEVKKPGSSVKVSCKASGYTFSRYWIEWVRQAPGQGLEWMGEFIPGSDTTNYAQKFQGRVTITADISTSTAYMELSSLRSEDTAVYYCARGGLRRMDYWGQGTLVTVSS VL: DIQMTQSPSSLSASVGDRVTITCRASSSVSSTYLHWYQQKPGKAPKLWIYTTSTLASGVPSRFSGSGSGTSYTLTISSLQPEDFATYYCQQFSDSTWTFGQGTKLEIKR | 0.96 |

// below: Kd requested for another binder
Record Xi16E5 (antibody, human IgG4 S228P, kappa, V domains shown, Chimeric: mouse VH on human IgG4 (S228P, EU) constant region, mouse VL on human kappa constant region; made in CHO cells; also called chimeric version of 16E5) VH: EVQLQQSGPELKKPGETVKISCKASGYTFTNYGMNWVKQVPGKGLKWMGWINTNTGEPTYAEEFKGRFAFSLETSARTAFLQINNLKNEDTATYFCTRFSHLRGPMDYWGQGASVTVSS VL: DAVMTQTPLSLPVSLGDQASISCRSSQSLVHSNGYTYLHWYLQKPGQSPKLLIYKVSNRFSGVPDRFSGSGSGTDFTLKISRLEAEDLGVYFCSQSTHVPPTFGGGTKLEIKR . Reported Kd: 9.06
